Target: SMARCA4-HiBiT (Homo sapiens)
Construct: SMARCA4-HiBiT knock-in Hela monoclonal cell (CS3023226); host or cells: HeLa monoclonal knock-in line (CRISPR HiBiT knock-in at the endogenous locus, heterozygous)
Sequence (P51532 whole entry): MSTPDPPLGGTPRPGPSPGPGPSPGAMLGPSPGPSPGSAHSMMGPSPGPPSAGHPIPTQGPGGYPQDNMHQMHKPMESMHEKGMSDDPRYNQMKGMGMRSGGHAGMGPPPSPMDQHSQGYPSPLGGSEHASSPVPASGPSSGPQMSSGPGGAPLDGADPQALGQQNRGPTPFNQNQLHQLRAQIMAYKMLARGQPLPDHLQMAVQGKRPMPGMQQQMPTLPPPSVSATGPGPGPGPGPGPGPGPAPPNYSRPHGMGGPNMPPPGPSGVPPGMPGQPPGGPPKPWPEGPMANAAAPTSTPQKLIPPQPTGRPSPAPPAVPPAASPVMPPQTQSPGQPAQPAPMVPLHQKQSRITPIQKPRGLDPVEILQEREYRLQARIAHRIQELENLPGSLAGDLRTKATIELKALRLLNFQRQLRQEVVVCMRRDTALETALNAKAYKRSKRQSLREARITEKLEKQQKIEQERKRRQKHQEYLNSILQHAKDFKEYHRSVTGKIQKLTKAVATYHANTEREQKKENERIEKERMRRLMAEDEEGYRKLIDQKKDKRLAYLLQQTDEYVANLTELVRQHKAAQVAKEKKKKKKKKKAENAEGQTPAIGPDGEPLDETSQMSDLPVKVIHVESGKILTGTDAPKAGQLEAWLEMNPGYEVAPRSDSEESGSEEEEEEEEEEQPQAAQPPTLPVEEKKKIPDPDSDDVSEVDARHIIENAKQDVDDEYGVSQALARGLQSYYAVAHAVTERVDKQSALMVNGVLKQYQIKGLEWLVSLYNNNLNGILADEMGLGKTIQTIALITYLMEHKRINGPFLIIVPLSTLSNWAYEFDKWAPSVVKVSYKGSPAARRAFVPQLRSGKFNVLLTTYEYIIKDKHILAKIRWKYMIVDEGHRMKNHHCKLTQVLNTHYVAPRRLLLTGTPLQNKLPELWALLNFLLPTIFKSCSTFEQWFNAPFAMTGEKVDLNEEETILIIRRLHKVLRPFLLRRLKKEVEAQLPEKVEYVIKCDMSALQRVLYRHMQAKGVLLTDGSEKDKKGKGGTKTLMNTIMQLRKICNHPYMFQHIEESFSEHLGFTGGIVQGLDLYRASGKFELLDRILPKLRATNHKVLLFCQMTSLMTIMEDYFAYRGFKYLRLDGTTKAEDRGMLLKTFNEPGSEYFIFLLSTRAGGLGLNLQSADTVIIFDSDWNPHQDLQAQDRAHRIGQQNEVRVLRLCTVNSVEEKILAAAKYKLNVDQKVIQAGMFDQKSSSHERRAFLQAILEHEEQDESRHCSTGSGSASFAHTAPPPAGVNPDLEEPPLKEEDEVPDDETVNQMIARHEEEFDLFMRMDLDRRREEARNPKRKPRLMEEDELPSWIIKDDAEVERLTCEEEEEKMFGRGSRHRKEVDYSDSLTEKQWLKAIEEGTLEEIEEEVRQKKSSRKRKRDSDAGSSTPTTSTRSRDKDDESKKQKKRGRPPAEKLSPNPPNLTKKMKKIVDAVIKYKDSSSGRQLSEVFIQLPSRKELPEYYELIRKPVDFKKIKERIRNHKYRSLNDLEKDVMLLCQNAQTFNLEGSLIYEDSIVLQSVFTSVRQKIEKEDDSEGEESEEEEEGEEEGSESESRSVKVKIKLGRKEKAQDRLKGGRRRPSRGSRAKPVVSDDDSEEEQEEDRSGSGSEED
Assay: SMARCA4 HiBiT degradation assay in HeLa cells
Type: cell-based
Settings: HeLa, 18 hours incubation, read-out: HeLa-HiBit-SM4 Dmax (%)
Dmax overview

{"columns": ["molecule", "tested-on", "Dmax"],
 "data": [
  ["O=C1CCC(N2C(=O)c3ccc(NCCN4CCN(C(=O)N5CCN6c7cc(-c8ccccc8O)nnc7NC[C@H]6C5)CC4)cc3C2=O)C(=O)N1 (stereo partly drawn)", "SMARCA4-HiBiT (Homo sapiens)", "≤ 50%"],
  ["O=C1CCC(N2Cc3cc(C4CCN(CC5CCN(CCN6CCN7c8cc(-c9ccccc9O)nnc8NC[C@H]7C6)CC5)CC4)ccc3C2=O)C(=O)N1 (stereo partly drawn)", "SMARCA4-HiBiT (Homo sapiens)", "> 85%"],
  ["O=C1CCC(N2C(=O)c3ccc(N4CCCC(CN5CCO[C@@H](CN6CCN7c8cc(-c9ccccc9O)nnc8NC[C@H]7C6)C5)C4)cc3C2=O)C(=O)N1 (stereo partly drawn)", "SMARCA4-HiBiT (Homo sapiens)", "75 to 85%"],
  ["CC1(C)CN(CC2CCN(c3ccc4c(c3)C(=O)N(C3CCC(=O)NC3=O)C4)CC2)CCN1C(=O)N1CCN2c3cc(-c4ccccc4O)nnc3NC[C@H]2C1 (stereo partly drawn)", "SMARCA4-HiBiT (Homo sapiens)", "> 85%"],
  ["O=C1CCC(N2Cc3ccc(N4CCC(CN5CCN(C(=O)N6CCN7c8cc(-c9cc(F)ccc9O)nnc8NC[C@H]7C6)CC5)CC4)cc3C2=O)C(=O)N1 (stereo partly drawn)", "SMARCA4-HiBiT (Homo sapiens)", "75 to 85%"],
  ["CC(C1CCN(c2ccc3c(c2)C(=O)N(C2CCC(=O)NC2=O)C3=O)CC1)N1CCC(CN2CCN3c4cc(-c5ccccc5O)nnc4NCC3C2)CC1 (stereo in doubt)", "SMARCA4-HiBiT (Homo sapiens)", "50 to 75%"]
]}

====

Biological target: SMARCA2-HiBiT (Homo sapiens)
Construct: SMARCA2-HiBiT knock-in Hela monoclonal cell (CS302366); host or cells: HeLa monoclonal knock-in line (CRISPR HiBiT knock-in at the endogenous locus, heterozygous)
Assay: SMARCA2 HiBiT degradation assay in HeLa cells
Type: cell-based
Settings: 18 hours incubation, read-out: HeLa_HiBit-SM2 DC50
DC50 overview

{"columns": ["compound", "tested-on", "DC50"],
 "data": [
  ["C[C@H]1CN2c3cc(-c4ccccc4O)nnc3NC[C@H]2CN1C[C@H]1[C@@H]2CN(CC3CCN(c4ccc5c(c4)CN(C4CCC(=O)NC4=O)C5=O)CC3)C[C@@H]21 (some centres unmarked)", "SMARCA2-HiBiT (Homo sapiens)", "< 10 nM"],
  ["O=C1CCC(N2Cc3ccc(N4CC(CN5C[C@@H]6[C@H](C5)[C@H]6CN5CCN6c7cc(-c8ccccc8O)nnc7NC[C@H]6C5)C4)cc3C2=O)C(=O)N1 (some centres unmarked)", "SMARCA2-HiBiT (Homo sapiens)", "< 10 nM"],
  ["C[C@@H](CN1CCC(N2CCN3c4cc(-c5ccccc5O)nnc4NC[C@H]3C2)CC1)Nc1cccc2c1C(=O)N(C1CCC(=O)NC1=O)C2=O (some centres unmarked)", "SMARCA2-HiBiT (Homo sapiens)", "< 10 nM"],
  ["O=C1CCC(N2C(=O)c3ccc(N4CCC(CN5CCC(NC(=O)N6CCN7c8cc(-c9ccccc9O)nnc8NC[C@H]7C6)CC5)CC4)cc3C2=O)C(=O)N1 (some centres unmarked)", "SMARCA2-HiBiT (Homo sapiens)", "< 10 nM"],
  ["O=C1CCC(N2C(=O)c3ccc(N4Cc5cnc(N6C[C@@H]7[C@@H](CN8CCN9c%10cc(-c%11ccccc%11O)nnc%10NC[C@H]9C8)[C@@H]7C6)nc5C4)cc3C2=O)C(=O)N1 (some centres unmarked)", "SMARCA2-HiBiT (Homo sapiens)", "< 10 nM"]
]}

====

Molecular target: SMARCA2-HiBiT (Homo sapiens, UniProt P51531)
Construct: SMARCA2-HiBiT knock-in Hela monoclonal cell (CS302366); host or cells: HeLa monoclonal knock-in line (CRISPR HiBiT knock-in at the endogenous locus, heterozygous)
Sequence (P51531 whole entry): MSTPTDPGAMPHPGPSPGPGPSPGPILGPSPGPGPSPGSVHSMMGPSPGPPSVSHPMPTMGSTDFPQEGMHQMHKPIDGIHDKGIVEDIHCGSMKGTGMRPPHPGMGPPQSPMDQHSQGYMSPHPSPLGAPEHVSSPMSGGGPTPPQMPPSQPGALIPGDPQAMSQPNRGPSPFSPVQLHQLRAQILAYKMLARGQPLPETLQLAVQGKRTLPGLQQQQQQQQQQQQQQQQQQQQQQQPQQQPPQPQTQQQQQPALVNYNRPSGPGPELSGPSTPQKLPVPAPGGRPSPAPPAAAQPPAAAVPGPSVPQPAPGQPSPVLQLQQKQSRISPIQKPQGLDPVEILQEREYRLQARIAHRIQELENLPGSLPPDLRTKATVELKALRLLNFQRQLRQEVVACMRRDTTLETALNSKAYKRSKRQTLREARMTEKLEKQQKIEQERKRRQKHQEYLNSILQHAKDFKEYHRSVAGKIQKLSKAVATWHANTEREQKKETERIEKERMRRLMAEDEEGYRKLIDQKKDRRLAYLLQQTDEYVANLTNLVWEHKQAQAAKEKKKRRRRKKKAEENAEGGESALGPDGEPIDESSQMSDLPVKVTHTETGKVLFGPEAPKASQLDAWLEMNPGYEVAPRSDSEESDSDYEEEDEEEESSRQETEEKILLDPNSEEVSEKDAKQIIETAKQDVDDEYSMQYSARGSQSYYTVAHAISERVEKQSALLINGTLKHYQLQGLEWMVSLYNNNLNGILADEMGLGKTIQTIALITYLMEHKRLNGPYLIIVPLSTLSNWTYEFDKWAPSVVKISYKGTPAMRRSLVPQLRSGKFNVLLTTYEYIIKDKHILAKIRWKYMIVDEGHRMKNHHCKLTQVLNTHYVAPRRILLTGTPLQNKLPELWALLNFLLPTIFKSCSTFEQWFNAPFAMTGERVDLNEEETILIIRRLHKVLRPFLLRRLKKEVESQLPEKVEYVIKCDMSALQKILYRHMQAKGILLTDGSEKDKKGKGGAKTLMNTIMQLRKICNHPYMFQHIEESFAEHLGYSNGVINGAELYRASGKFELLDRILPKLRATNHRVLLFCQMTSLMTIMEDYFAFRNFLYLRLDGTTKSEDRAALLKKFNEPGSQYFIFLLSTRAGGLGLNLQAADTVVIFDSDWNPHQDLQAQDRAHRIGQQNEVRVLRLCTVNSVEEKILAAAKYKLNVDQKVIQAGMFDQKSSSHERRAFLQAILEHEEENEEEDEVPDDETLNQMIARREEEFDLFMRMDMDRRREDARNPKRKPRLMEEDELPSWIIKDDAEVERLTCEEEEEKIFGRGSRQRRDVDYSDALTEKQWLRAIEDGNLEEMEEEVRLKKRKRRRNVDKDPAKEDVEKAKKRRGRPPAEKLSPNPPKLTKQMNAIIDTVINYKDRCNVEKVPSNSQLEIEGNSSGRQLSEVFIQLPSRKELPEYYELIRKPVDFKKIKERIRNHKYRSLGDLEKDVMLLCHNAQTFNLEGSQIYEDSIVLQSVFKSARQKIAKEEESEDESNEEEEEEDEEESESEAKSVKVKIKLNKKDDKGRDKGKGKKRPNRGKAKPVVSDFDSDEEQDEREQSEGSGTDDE
Assay: SMARCA2 HiBiT degradation assay in HeLa cells
Assay type: cell-based
Settings: HeLa, 18 hours incubation, read-out: HeLa-HiBit-SM2 Dmax (%)
Dmax overview
readout-kind: Dmax

{"columns": ["compound", "readout-kind", "reported-result"],
 "data": [
  ["O=C1CCC(N2Cc3ccc(N4CCC(CN5C[C@@H]6[C@H](C5)[C@H]6C(=O)N5CCN6c7cc(-c8ccccc8O)nnc7NC[C@H]6C5)CC4)cc3C2=O)C(=O)N1 (some centres unmarked)", "Dmax", "50 to 75%"],
  ["C[C@@H](CN1CCC(N2CCN3c4cc(-c5ccccc5O)nnc4NC[C@H]3C2)CC1)Nc1cccc2c1C(=O)N(C1CCC(=O)NC1=O)C2=O (some centres unmarked)", "Dmax", "75 to 85%"],
  ["O=C1CCC(N2C(=O)c3ccc(N4CCN(C5CCN(CCN6CCN7c8cc(-c9ccccc9O)nnc8NC[C@H]7C6)C5)CC4)cc3C2=O)C(=O)N1 (some centres unmarked)", "Dmax", "75 to 85%"],
  ["O=C1CCC(N2C(=O)c3ccc(N4CCN(CCN5CCC(N6CCN7c8cc(-c9ccccc9O)nnc8NC[C@H]7C6)CC5)CC4)cc3C2=O)C(=O)N1 (some centres unmarked)", "Dmax", "> 85%"],
  ["CCC1CN(CC2CCN(c3ccc4c(c3)C(=O)N(C3CCC(=O)NC3=O)C4=O)CC2)CCN1C(=O)N1CCN2c3cc(-c4ccccc4O)nnc3NC[C@H]2C1 (some centres unmarked)", "Dmax", "75 to 85%"],
  ["O=C1CCC(N2Cc3cc(C4CCN(C5CCN(CCN6CCN7c8cc(-c9ccccc9O)nnc8NC[C@H]7C6)CC5)CC4)ccc3C2=O)C(=O)N1 (some centres unmarked)", "Dmax", "> 85%"],
  ["O=C1CCC(N2C(=O)c3ccc(N4CCC(CN5CCC(N6CCN7c8cc(-c9ccccc9O)nnc8NC[C@H]7C6)CC5)CC4)cc3C2=O)C(=O)N1 (some centres unmarked)", "Dmax", "> 85%"],
  ["O=C1CCC(N2C(=O)c3ccc(N4CCC(NC56CC(CN7CCN8c9cc(-c%10ccccc%10O)nnc9NC[C@H]8C7)(C5)C6)CC4)cc3C2=O)C(=O)N1 (some centres unmarked)", "Dmax", "75 to 85%"],
  ["C[C@H]1CN2c3cc(-c4ccccc4O)nnc3NC[C@H]2CN1C(=O)N1CCN(CC2CCN(c3ccc4c(c3)C(=O)N(C3CCC(=O)NC3=O)C4)CC2)CC1 (some centres unmarked)", "Dmax", "> 85%"],
  ["C[C@@H]1C[C@H](CN2CCC(CN3CCN4c5cc(-c6ccccc6O)nnc5NC[C@H]4C3)CC2)CCN1c1ccc2c(c1)C(=O)N(C1CCC(=O)NC1=O)C2=O (some centres unmarked)", "Dmax", "> 85%"],
  ["O=C1CCC(N2C(=O)c3ccc(N4CCN(CCN5CCO[C@H](CN6CCN7c8cc(-c9ccccc9O)nnc8NC[C@H]7C6)C5)CC4)cc3C2=O)C(=O)N1 (some centres unmarked)", "Dmax", "> 85%"]
]}

====

Biological target: SMARCA2-HiBiT (Homo sapiens)
Construct: SMARCA2-HiBiT knock-in Hela monoclonal cell (CS302366); host or cells: HeLa monoclonal knock-in line (CRISPR HiBiT knock-in at the endogenous locus, heterozygous)
Assay: SMARCA2 HiBiT degradation assay in HeLa cells
Format: cell-based
Conditions: HeLa, 18 hours incubation, read-out: HeLa-HiBit-SM2 Dmax (%)
Protocol: HiBiT peptide knock-in of SMARCA2 in LgBiT expressing HEK293T cells was performed by CRISPR-mediated tagging system as described Promega. The homozygous HiBiT knock-in on c-terminus SMARCA2 was confirmed by sanger sequence. SMARCA2-HiBiT knock-in Hela monoclonal cell (CS302366) and SMARCA4-HiBiT knock-in Hela monoclonal cell (CS3023226) were purchased from Promega. The heterozygous HiBiT-knock-in was confirmed by sanger sequence in both SMARCA2-HiBiT and SMARCA4-HiBiT monoclonal cells. […]
Dmax overview
readout-kind: Dmax

{"columns": ["molecule", "tested-on", "reported-result"],
 "data": [
  ["O=C1CCC(N2C(=O)c3ccc(N4CCN(CC5CCC(CN6CCN7c8cc(-c9ccccc9O)nnc8NC[C@H]7C6)CC5)CC4)cc3C2=O)C(=O)N1 (stereo partly shown)", "SMARCA2-HiBiT (Homo sapiens)", "> 85%"],
  ["O=C1CCC(N2C(=O)c3ccc(N4CCC(CN5CCN(C(=O)N6CCN7c8cc(-c9ccccc9O)nnc8NC[C@H]7C6)CC5)C(F)(F)C4)cc3C2=O)C(=O)N1 (stereo partly shown)", "SMARCA2-HiBiT (Homo sapiens)", "50 to 75%"],
  ["O=C1CCC(N2C(=O)c3ccc(N4CCCC5(CCN(CCN6CCN7c8cc(-c9ccccc9O)nnc8NC[C@H]7C6)CC5)C4)cc3C2=O)C(=O)N1 (stereo partly shown)", "SMARCA2-HiBiT (Homo sapiens)", "50 to 75%"],
  ["O=C1CCC(N2C(=O)c3ccc(N4CC[C@H](CN5C[C@@H]6[C@H](C5)[C@H]6CN5CCN6c7cc(-c8cc(F)ccc8O)nnc7NC[C@H]6C5)[C@@H](F)C4)cc3C2=O)C(=O)N1 (stereo partly shown)", "SMARCA2-HiBiT (Homo sapiens)", "> 85%"],
  ["CC1(CN2CCN3c4cc(-c5ccccc5O)nnc4NC[C@H]3C2)CCN(CC2CCN(c3ccc4c(c3)CN(C3CCC(=O)NC3=O)C4=O)CC2)CC1 (stereo partly shown)", "SMARCA2-HiBiT (Homo sapiens)", "> 85%"],
  ["O=C1CCC(N2Cc3ccc(C4CCN(CCCN5CCC(CN6CCN7c8cc(-c9ccccc9O)nnc8NC[C@H]7C6)CC5)CC4)cc3C2=O)C(=O)N1 (stereo partly shown)", "SMARCA2-HiBiT (Homo sapiens)", "> 85%"],
  ["O=C1CCC(n2ccc3cc(N4CCC(CN5CCC(N6CCN7c8cc(-c9ccccc9O)nnc8NC[C@H]7C6)CC5)CC4)ccc3c2=O)C(=O)N1 (stereo partly shown)", "SMARCA2-HiBiT (Homo sapiens)", "> 85%"],
  ["COC1(CN2C[C@@H]3[C@@H](CN4CCN5c6cc(-c7ccccc7O)nnc6NC[C@H]5C4)[C@@H]3C2)CCN(c2ccc3c(c2)C(=O)N(C2CCC(=O)NC2=O)C3)CC1 (stereo partly shown)", "SMARCA2-HiBiT (Homo sapiens)", "> 85%"],
  ["CC1CN(CC2CCN(C(=O)N3CCN4c5cc(-c6ccccc6O)nnc5NC[C@H]4C3)CC2)CCN1c1ccc2c(c1)C(=O)N(C1CCC(=O)NC1=O)C2=O (stereo partly shown)", "SMARCA2-HiBiT (Homo sapiens)", "> 85%"],
  ["O=C1CCC(N2C(=O)c3ccc(N4CCC(CN5CCO[C@H](CN6CCN7c8cc(-c9ccccc9O)nnc8NC[C@H]7C6)C5)CC4)cc3C2=O)C(=O)N1 (stereo partly shown)", "SMARCA2-HiBiT (Homo sapiens)", "75 to 85%"],
  ["CC1CN(CC2CN(c3ccc4c(c3)C(=O)N(C3CCC(=O)NC3=O)C4=O)C2)CC(C)N1C(=O)N1CCN2c3cc(-c4ccccc4O)nnc3NC[C@H]2C1 (stereo partly shown)", "SMARCA2-HiBiT (Homo sapiens)", "> 85%"],
  ["CC1CC(CN2CCN3c4cc(-c5ccccc5O)nnc4NC[C@H]3C2)CCN1CC1CCN(c2ccc3c(c2)C(=O)N(C2CCC(=O)NC2=O)C3=O)CC1 (stereo partly shown)", "SMARCA2-HiBiT (Homo sapiens)", "> 85%"],
  ["O=C1CCC(N2C(=O)c3ccc(N4CCCC(CN5CCO[C@@H](CN6CCN7c8cc(-c9ccccc9O)nnc8NC[C@H]7C6)C5)C4)cc3C2=O)C(=O)N1 (stereo partly shown)", "SMARCA2-HiBiT (Homo sapiens)", "75 to 85%"],
  ["CN(CC1CCN(CC2CCN(c3ccc4c(c3)C(=O)N(C3CCC(=O)NC3=O)C4=O)CC2)CC1)C1CCN2c3cc(-c4ccccc4O)nnc3NCC2C1 (stereo not shown)", "SMARCA2-HiBiT (Homo sapiens)", "50 to 75%"],
  ["O=C1CCC(N2C(=O)c3ccc(N4CCO[C@H](CN5C[C@@H]6[C@H](C5)[C@H]6CN5CCN6c7cc(-c8ccccc8O)nnc7NC[C@H]6C5)C4)cc3C2=O)C(=O)N1 (stereo partly shown)", "SMARCA2-HiBiT (Homo sapiens)", "> 85%"],
  ["C[C@H]1CN(CC2CCN(c3ccc4c(c3)C(=O)N(C3CCC(=O)NC3=O)C4=O)CC2)CCN1C(=O)N1CCN2c3cc(-c4ccccc4O)nnc3NC[C@H]2C1 (stereo partly shown)", "SMARCA2-HiBiT (Homo sapiens)", "75 to 85%"],
  ["O=C1CCC(N2C(=O)c3ccc(N4C[C@H]5CC(N6CCC(CN7CCN8c9cc(-c%10ccccc%10O)nnc9NC[C@H]8C7)CC6)[C@H]5C4)cc3C2=O)C(=O)N1 (stereo partly shown)", "SMARCA2-HiBiT (Homo sapiens)", "75 to 85%"],
  ["O=C1CCC(N2C(=O)c3ccc(N4CCC(CN5CCC(CN6CCN7c8cc(-c9ccccc9O)nnc8NC[C@H]7C6)CC5)CC4)cc3C2=O)C(=O)N1COC(=O)C1(O)CC1 (stereo partly shown)", "SMARCA2-HiBiT (Homo sapiens)", "> 85%"],
  ["O=C1CCC(N2C(=O)c3ccc(Nc4cnn(CCN5CCC(N6CCN7c8cc(-c9ccccc9O)nnc8NC[C@H]7C6)CC5)c4)cc3C2=O)C(=O)N1 (stereo partly shown)", "SMARCA2-HiBiT (Homo sapiens)", "50 to 75%"],
  ["CC1CN(CC2CCN(c3ccc4c(c3)C(=O)N(C3CCC(=O)NC3=O)C4)CC2)CC(C)N1C(=O)N1CCN2c3cc(-c4ccccc4O)nnc3NC[C@H]2C1 (stereo partly shown)", "SMARCA2-HiBiT (Homo sapiens)", "> 85%"],
  ["O=C1CCC(N2Cc3ccc(N4CCC(CN5CCN(C(=O)N6CCN7c8cc(-c9cc(F)ccc9O)nnc8NC[C@H]7C6)CC5)CC4)cc3C2=O)C(=O)N1 (stereo partly shown)", "SMARCA2-HiBiT (Homo sapiens)", "> 85%"],
  ["O=C1CCC(N2C(=O)c3ccc(N4CCC(CN5CC6CC(CN7CCN8c9cc(-c%10ccccc%10O)nnc9NC[C@H]8C7)C6C5)CC4)cc3C2=O)C(=O)N1 (stereo partly shown)", "SMARCA2-HiBiT (Homo sapiens)", "> 85%"]
]}
